Recorded values, source patent US20250282885A1.

Target: T1, human Sdc2 (human, UniProt P34741 19-144, limits assumed)
T1 construct: Antigen of the Octet tandem binning, loaded on biosensors at 100 nM; also called huSdc2; hSdc2
T1 sequence (P34741 19-144 limits assumed): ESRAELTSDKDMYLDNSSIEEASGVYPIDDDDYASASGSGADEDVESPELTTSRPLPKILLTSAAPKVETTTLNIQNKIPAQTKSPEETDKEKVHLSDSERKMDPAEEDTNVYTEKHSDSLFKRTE
Assay: Octet tandem binning; saturating Ab f3 19838-6N03-A
raw competing-Ab binding signal values, listed per item
property_measured: raw competing-Ab binding signal

# binder, property_measured, observed_measurement
records = [
    ("R4M-P1-A10 (antibody, human IgG1, kappa, V domains shown) VH: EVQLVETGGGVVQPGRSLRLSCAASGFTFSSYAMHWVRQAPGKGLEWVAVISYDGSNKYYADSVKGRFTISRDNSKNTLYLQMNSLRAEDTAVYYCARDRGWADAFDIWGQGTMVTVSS VL: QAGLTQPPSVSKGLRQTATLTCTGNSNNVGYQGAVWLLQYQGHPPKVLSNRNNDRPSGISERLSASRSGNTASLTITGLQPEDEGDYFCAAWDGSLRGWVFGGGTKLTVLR", "raw competing-Ab binding signal", 0.362),
    ("R4M-P3-A12 (antibody, human IgG1, kappa, V domains shown) VH: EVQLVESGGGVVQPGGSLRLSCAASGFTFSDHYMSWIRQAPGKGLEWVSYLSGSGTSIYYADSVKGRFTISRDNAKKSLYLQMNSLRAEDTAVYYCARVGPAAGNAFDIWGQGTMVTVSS VL: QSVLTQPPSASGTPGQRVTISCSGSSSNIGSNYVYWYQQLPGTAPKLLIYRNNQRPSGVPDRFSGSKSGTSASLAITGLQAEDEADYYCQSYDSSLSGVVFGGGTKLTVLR", "raw competing-Ab binding signal", 0.106),
    ("R4M-P3-E06 (antibody, human IgG1, kappa, V domains shown, human IgG1 kappa from the phage campaign) VH: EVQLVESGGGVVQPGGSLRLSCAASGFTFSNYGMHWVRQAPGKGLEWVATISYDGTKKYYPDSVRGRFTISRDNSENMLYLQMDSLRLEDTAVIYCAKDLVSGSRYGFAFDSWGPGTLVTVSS VL: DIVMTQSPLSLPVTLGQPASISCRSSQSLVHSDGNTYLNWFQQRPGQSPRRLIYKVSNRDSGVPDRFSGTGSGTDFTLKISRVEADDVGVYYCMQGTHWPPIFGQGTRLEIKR", "raw competing-Ab binding signal", 0.209),
    ("8-G17-A (antibody, V domains shown, PentaMice hybridoma clone, made recombinantly in CHO cells) VH: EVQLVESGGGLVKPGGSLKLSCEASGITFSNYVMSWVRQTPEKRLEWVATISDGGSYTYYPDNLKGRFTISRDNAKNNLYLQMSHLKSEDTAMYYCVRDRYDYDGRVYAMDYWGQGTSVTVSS VL: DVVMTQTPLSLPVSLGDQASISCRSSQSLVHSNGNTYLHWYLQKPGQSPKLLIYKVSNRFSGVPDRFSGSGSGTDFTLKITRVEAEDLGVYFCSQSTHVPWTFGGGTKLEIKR", "raw competing-Ab binding signal", 0.0574),
    ("19838-6-N03-A (antibody, IgG1, V domains shown) VH: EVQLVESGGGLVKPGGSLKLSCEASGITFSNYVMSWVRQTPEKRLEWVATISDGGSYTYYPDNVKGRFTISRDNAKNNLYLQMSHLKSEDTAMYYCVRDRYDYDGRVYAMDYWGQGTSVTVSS VL: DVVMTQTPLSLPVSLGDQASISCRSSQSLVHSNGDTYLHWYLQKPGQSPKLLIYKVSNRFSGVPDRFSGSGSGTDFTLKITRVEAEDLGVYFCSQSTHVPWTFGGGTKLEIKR", "raw competing-Ab binding signal", 0.0058),
    ("R3-P3-E09 (antibody, human IgG1, kappa, V domains shown, human IgG1 kappa from the phage campaign) VH: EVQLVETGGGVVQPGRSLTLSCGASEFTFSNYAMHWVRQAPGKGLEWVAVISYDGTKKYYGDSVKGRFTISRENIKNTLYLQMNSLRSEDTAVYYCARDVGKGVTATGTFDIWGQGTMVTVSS VL: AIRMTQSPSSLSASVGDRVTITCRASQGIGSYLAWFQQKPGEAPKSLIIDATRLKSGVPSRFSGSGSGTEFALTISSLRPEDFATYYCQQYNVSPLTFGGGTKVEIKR", "raw competing-Ab binding signal", 0.407),
    ("R3-P3-C11 (antibody, human IgG1, kappa, V domains shown, human IgG1 kappa from the phage campaign) VH: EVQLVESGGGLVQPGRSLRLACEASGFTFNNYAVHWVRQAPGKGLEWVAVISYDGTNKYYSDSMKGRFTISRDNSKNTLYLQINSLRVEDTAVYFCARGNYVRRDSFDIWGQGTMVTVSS VL: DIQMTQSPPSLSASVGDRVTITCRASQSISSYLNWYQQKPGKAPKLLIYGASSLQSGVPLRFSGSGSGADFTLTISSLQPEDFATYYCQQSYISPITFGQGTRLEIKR", "raw competing-Ab binding signal", 0.645),
]
